molecular target: HLA-B5801 (Homo sapiens, UniProt P01889, A329T/C349S/D201E/D98Y/E176V/E187L/E204Q/E69T/G107R/I218V/I90N/K202T/L105A/L119I/N104I/N87E/Q89R/Q94S/R106L/R155S/R180L/R86G/S101N/S121R/S35A/S48A/T118I/V127L/V306I/V36M/Y140S/Y91M); test: Competitive peptide binding assay, CIR-B5801; details: HMy2.CIR-B5801 cells, reference Cy5-[…], class from inhibition at 5 and 15 μM, flow cytometry MFI; read-out: Binding affinity with HLA-B5801
Peptide text beside a SMILES is read from it.
parameterMeasured: IC50

# annotated cases, reported IC50 shown
molecule	measuredResult
C[C@H](NC(=O)CNC(=O)[C@H](C)NC(=O)[C@@H](NC(=O)[C@@H](N)Cc1c[nH]c2ccccc12)[C@@H](C)O)C(=O)N[C@@H](C)C(=O)N[C@@H](C)C(=O)N[C@@H](Cc1ccc(O)cc1)C(=O)N[C@@H](Cc1ccc(O)cc1)C(=O)O [Epitope Y174] (H-WTAGAAAYY-OH; N-terminus and C-terminus assumed)	> 15 µM
CSCC[C@H](NC(=O)[C@H](CO)NC(=O)[C@H](CCC(N)=O)NC(=O)[C@H](CCC(N)=O)NC(=O)[C@H](CC(C)C)NC(=O)[C@H](CCC(N)=O)NC(=O)[C@H](CCCCN)NC(=O)[C@H](CO)NC(=O)[C@@H](N)Cc1ccccc1)C(=O)O [Epitope Y135] (H-FSKQLQQSM-OH; N-terminus and C-terminus assumed)	5 to 15 µM
CC[C@H](C)[C@H](NC(=O)[C@@H](NC(=O)[C@H](CCC(=O)O)NC(=O)[C@H](CCC(=O)O)NC(=O)[C@@H](N)Cc1c[nH]cn1)[C@@H](C)O)C(=O)N[C@@H](Cc1ccc(O)cc1)C(=O)N[C@@H](CC(N)=O)C(=O)N[C@@H](CC(C)C)C(=O)N[C@@H](CC(C)C)C(=O)O [Epitope Y199] (H-HEETIYNLL-OH; N-terminus and C-terminus assumed)	5 to 15 µM
CC[C@H](C)[C@H](NC(=O)[C@H](C)NC(=O)[C@H](C)NC(=O)[C@H](CC(N)=O)NC(=O)CNC(=O)[C@H](CC(=O)O)NC(=O)[C@H](CCC(N)=O)NC(=O)[C@H](C)NC(=O)[C@@H](N)Cc1ccccc1)C(=O)O [Epitope Y246] (H-FAQDGNAAI-OH; N-terminus and C-terminus assumed)	> 15 µM

Problem: Provide IC50 value for the following molecule: C[C@H](NC(=O)[C@H](CO)NC(=O)[C@H](CO)NC(=O)[C@@H](N)Cc1ccc(O)cc1)C(=O)N[C@@H](CC(N)=O)C(=O)N[C@@H](CC(N)=O)C(=O)N[C@@H](CS)C(=O)N[C@H](C(=O)N[C@@H](Cc1ccccc1)C(=O)O)[C@@H](C)O [Epitope Y247] (H-YSSANNCTF-OH; N-terminus and C-terminus assumed)
Result: < 5 µM

Problem: Please supply the value of reported IC50 for the item CC(C)[C@H](NC(=O)[C@H](CC(N)=O)NC(=O)[C@H](Cc1ccc(O)cc1)NC(=O)[C@H](C)NC(=O)[C@@H](N)CCCCN)C(=O)N[C@H](C(=O)N[C@@H](CCC(N)=O)C(=O)N[C@@H](C)C(=O)N[C@@H](Cc1ccccc1)C(=O)O)[C@@H](C)O [Epitope Y62] (H-KAYNVTQAF-OH)
Result: 5 to 15 µM

Problem: Note down IC50 recorded for CC(C)C[C@H](NC(=O)[C@H](CCC(N)=O)NC(=O)[C@@H](NC(=O)[C@H](CS)NC(=O)[C@H](Cc1ccccc1)NC(=O)[C@H](CO)NC(=O)CNC(=O)[C@H](Cc1ccc(O)cc1)NC(=O)[C@H](CCC(N)=O)NC(=O)[C@@H](N)CC(C)C)[C@@H](C)O)C(=O)O [Epitope Y88] (H-LQYGSFCTQL-OH; N-terminus and C-terminus assumed)
Result: > 15 µM
